Sourced from patent US7947830B2

Each entry below carries its reported melting point.
# output: bare number, implied unit °C

Below: 3 compounds and their reported melting point.
| compound | quantity_kind | observed_result |
| --- | --- | --- |
| O=C(NO)c1ccc(N2CCN(C(/C=C/c3ccc(F)cc3)CO)CC2)nc1 (stereo not shown) [Compound 31] | melting point | 145 |
| O=C(NO)c1cnc(N2CCN(C(/C=C/c3ccc(Cl)cc3)CN3CCOCC3)CC2)nc1 (stereo not shown) (hydrate or solvate) [Compound 2] | melting point | 135 |
| O=C(NO)c1cnc(N2CCN(C(/C=C/c3ccccc3)CO)CC2)nc1 (stereo not shown) [Compound 1] | melting point | 187 |

Moving on to another compound below.
input: Specify measured melting point for CN(C)C(=O)C(C)(/C=C/c1ccc(F)cc1)N1CCN(c2ncc(C(=O)NO)cn2)CC1 (stereo not shown) (hydrate or solvate) [Compound 10] .
output: 146

----------
# assay_remarks: Solubility at different pH's, chemiluminescent nitrogen detector (C.3.b)
# Assay type: physicochemical
# condition_set: pH 2.3, aqueous buffer, read-out: Solubility C.3.b. pH = 2.3 mg/ml
quantity_kind: solubility (µg/mL)
# output: bare number, implied unit µg/mL

input: Specify measured solubility for O=C(NO)c1cnc(N2CCN([C@@H](/C=C/c3ccccc3)CO)CC2)nc1 (single isomer, unassigned) .
output: 3400

----------
quantity_kind: melting point

| molecule | melting point |
| --- | --- |
| CC(/C=C/c1ccccc1)N1CCN(c2ncc(C(=O)NO)cn2)CC1 (stereo not drawn) | 161 °C |
| CC(=O)OCC(/C=C/c1ccccc1)N1CCN(c2ncc(C(=O)NO)cn2)CC1 (stereo not drawn) | 161 °C |

Moving on to another molecule below.
input: Specify measured melting point for COCC(/C=C/c1ccccc1)N1CCN(c2ncc(C(=O)NO)cn2)CC1 (stereo not drawn) .
output: 212 °C

----------
Each entry below carries its reported Enzymatic activity pIC50 C.1..
# tgt: histone deacetylase (HeLa nuclear extracts)
# assay_remarks: In vitro assay for inhibition of histone deacetylase (HDAC Fluorescent Activity Assay, Fluor de Lys)
# Assay type: biochemical
# condition_set: Fluor de Lys substrate

Below: 2 molecules and their reported Enzymatic activity pIC50 C.1..
| molecule | quantity_kind | observed_result |
| --- | --- | --- |
| CNC(=O)C(/C=C/c1ccccc1)N1CCN(c2ncc(C(=O)NO)cn2)CC1 (stereo not drawn) [Compound 16] | Enzymatic activity pIC50 C.1. | 7.4 |
| CC(/C=C/c1ccccc1)(C(=O)N1CCOCC1)N1CCN(c2ncc(C(=O)NO)cn2)CC1 (stereo not drawn) [Compound 13] | Enzymatic activity pIC50 C.1. | 8.8 |

Moving on to another molecule below.
input: Specify measured Enzymatic activity pIC50 C.1. for O=C(NO)c1cnc(N2CCN(C(/C=C/c3ccccc3)CO)CC2)nc1 (stereo not drawn) [Compound 1] .
output: 8.2

----------
# assay_remarks: Solubility at different pH's, chemiluminescent nitrogen detector (C.3.b)
# Type: physicochemical
# condition_set: pH 2.3, aqueous buffer, read-out: Solubility C.3.b. pH = 2.3 mg/ml
quantity_kind: solubility (µg/mL)
# output: bare number, implied unit µg/mL

| compound | solubility / µg/mL |
| --- | --- |
| CN1CCN(CC(/C=C/c2ccccc2)N2CCN(c3ncc(C(=O)NO)cn3)CC2)CC1 (stereo not shown) | 4200 |
| CC(/C=C/c1ccccc1)N1CCN(c2ncc(C(=O)NO)cn2)CC1 (stereo not shown) | 2000 |
| CC(/C=C/c1ccccc1)(C(=O)N1CCOCC1)N1CCN(c2ncc(C(=O)NO)cn2)CC1 (stereo not shown) | 3700 |
| CN(C)CCNC(=O)C(/C=C/c1ccccc1)N1CCN(c2ncc(C(=O)NO)cn2)CC1 (stereo not shown) | 3600 |

input: Specify measured solubility for Cc1ccc(/C=C/C(CO)N2CCN(c3ncc(C(=O)NO)cn3)CC2)cc1 (stereo not shown) .
output: 2100

input: Specify measured solubility for COCC(/C=C/c1ccccc1)N1CCN(c2ncc(C(=O)NO)cn2)CC1 (stereo not shown) .
output: 3100

input: Specify measured solubility for CNC(=O)C(/C=C/c1ccccc1)N1CCN(c2ncc(C(=O)NO)cn2)CC1 (stereo not shown) .
output: 2800
